Procedure summary: Example 4: dose response of FKBP constructs 160-255, Ec50, Ec90 and fold change (raw and normalized to mCherry)
Type: cell-based
Condition parameters: fold change during initial analysis
Reported values of FC (fold change) for individual entries
Measure name: FC (fold change)

>>> experimental_value("FKBP-212 (protein, Description of sequence: Construct Name: FKBP-212; Mutation(s): Q72R Q84E A117W V85R DRD M54A H53L) HCPIKSRKGDVLLAHYTGKLEDGTEFDSSLPRNQPFVFSLGTGERIKGWDQGLLGMCEGEKRKLVIPSELGYGERGWPPKIPGGATLVFEVELLKIER")
40.2
>>> experimental_value("FKBP-237 (protein, Description of sequence: Construct Name: FKBP-237; Mutation(s): Q72R Q84E A117W V85R DRD G113N) HCPIKSRKGDVLHMHYTGKLEDGTEFDSSLPRNQPFVFSLGTGERIKGWDQGLLGMCEGEKRKLVIPSELGYNERGWPPKIPGGATLVFEVELLKIER")
24.1
>>> experimental_value("FKBP-181 (protein, Description of sequence: Construct Name: FKBP-181; Mutation(s): Q72R Q84E A117W V85R DRD M54A D50L) HCPIKSRKGLVLHAHYTGKLEDGTEFDSSLPRNQPFVFSLGTGERIKGWDQGLLGMCEGEKRKLVIPSELGYGERGWPPKIPGGATLVFEVELLKIER")
52.0
